TESTED ON: T1, Recombinant human CD5 extracellular domain (CD5-ECD) (human, UniProt P06127 25-372)
T1 construct: In-house protein made as CD5-ECD - TEV site - hGH fusion; CD5-ECD isolated by TEV cleavage and nickel column; also called CD5-ECD protein
T1 sequence: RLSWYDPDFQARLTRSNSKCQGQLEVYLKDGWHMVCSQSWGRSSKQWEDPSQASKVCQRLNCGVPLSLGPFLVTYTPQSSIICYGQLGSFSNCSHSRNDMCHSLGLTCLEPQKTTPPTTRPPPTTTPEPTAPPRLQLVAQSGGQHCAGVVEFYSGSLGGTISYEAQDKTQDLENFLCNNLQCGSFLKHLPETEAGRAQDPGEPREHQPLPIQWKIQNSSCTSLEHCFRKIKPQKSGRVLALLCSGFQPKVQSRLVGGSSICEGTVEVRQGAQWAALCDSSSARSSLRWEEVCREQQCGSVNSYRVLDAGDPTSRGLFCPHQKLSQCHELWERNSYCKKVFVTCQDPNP
ASSAY OVERVIEW: SPR (Biacore 2000), antibody captured by anti-human Fc, CD5-ECD in solution, 1:1 fit;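 also: CM5 chip, binding curves at four CD5-ECD concentrations fitted globally, with the signal of a non-CD5-binding control antibody subtracted as reference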
hey, just use 1 if measured Kd is less than 0.4 nM, otherwise -1

>  <BINDER>
Anti-CD5 antibody 9 (6M4) (antibody, human IgG1, V domains shown, also called Ab9; Clone 9) VH: QVQLKESGPELEKPGASVKISCKASGYSFTAYSMNWVKQNNGMSLEWIGSIDPYYGDTKYAQKFKGKATLTVDKASSTAYLQLKSLTSEDSAVYYCARRMITTGDWYFDV VL: HIVLTQSPSSLSASLGDRVTISCRASQDISTYLNWYQQKPDGTVKLLIFYTSRLHAGVPSRFSGSGSGTHHSLTISNLEQEDIATYFCQQGNSLPFT

>  <CATEGORY>
-1

$$$$

API: query returns whether the binder falls strictly under 0.4 nM in Kd. Query: Anti-CD5 antibody 14 (7P9) (antibody, human IgG1, V domains shown, also called Ab14; Clone 14) VH: EVQLKESGAELVKPGASVKLSCTASGFNIKDTYMHWVKQRPEQGLEWIGRIDPANGNTKYDPKFQGKATITADTSSNTAYLQLSSLTSEDTAVYYCAREENYYGTYYFDY VL: NIVLTQSPASLAASVGETVTITCRASENIYYNLAWYQQKQGKSPQLLIYNANSLEDGVPSRFSGSGSGTQYSMKINSMQPEDTATYFCKQVYDVPFT
-1

Please indicate whether the reported Kd of Anti-CD5 antibody 31 (3P16) (antibody, human IgG1, V domains shown, also called Ab31; Clone 31) VH: EVQLKESGPELKKPGETVKISCMTSGYMFTNHGMNWVKQAPGKGLKWMGWINTYTGEPTYGDGFKGRFVFSLETSASTAYLQINNLKNEDTATYFCARRVATYFDV VL: NIVLTQSPAILSVSPGERVSFSCRASQRIGTSMNWYQQRTNGSPRLLIKSASESISGIPSRFSGSGSGTDFTLSINSVESDDVADYYCQQSNSWPLT is strictly below 0.4 nM.
-1

Threshold test, Kd < 0.4 nM: Anti-CD5 antibody 32 (4F3) (antibody, human IgG1, V domains shown, also called Ab32; Clone 32) VH: EVKLVESGPELKKPGETVKISCKASGYMFTNYGMNWVKQAPGKGLKWMGWINTYTGEPTYVEDFKGRFAFSLETSANTAYLQINNLKNEDTATYFCTRRSHITLDY VL: DIVLTQSPVILSVSPGERVSLSCRASQSIGTSINWYQQRTDGSPRLLIKSASESMSGIPSRFSGSGSGTDFTLSITSVESEDIADYYCQQSNSWPLT
-1

Is the reported Kd for Anti-CD5 antibody 11 (4E24) (antibody, human IgG1, V domains shown, also called Ab11; Clone 11) VH: EVQLKESGAELVRPGGSVKISCKGSGYTFTNFAIHWVKQSHIKTLEWIGLISTSSGDVSYNQKFKDKATMTVDKSSSTAYMELARLTSEDSAIYYCARHYGANNYFDY VL: EIVLTQSPTIMSASPGEQVTMTCRTNSSVSSSYLHWYQQKSGASPKLWIYGTSNLASGVPTRFSGSGSGTSYSLTISSVEAGDAATYFCQQYSGYPLT strictly below 0.4 nM?
1

Please state whether Kd is below 0.4 nM for Anti-CD5 antibody 18 (1E7) (antibody, human IgG1, V domains shown, also called Ab18; Clone 18) VH: QVQLKESGGGLVQPGGSLKLSCAASGFTFSNYGMSWVRQIPDKRLELVAAINSNGDITYDPDSVKGRFTISRDNANNSLFLQMRSLKSEDTAMYYCARGTAWFTYWGQGTLVT VL: DIVLTQSPASLSASVGETVIITCRASENIYSYLVWYQQKQGKSPQLLVYNAKTLAEGVPSRFSGSGSGTQFSLKINSLQSEDFGSYSCQHHYGYPYT
1

Consider Anti-CD5 antibody 8 (8G8) (antibody, human IgG1, V domains shown, also called Ab8; Clone 8) VH: QVQLKESGPELEKPGASVRISCKASGYSFTAYNINWVTQRDGKSLEWIGSIDPYYGDTKYNQKFKDKATLTVDKSSSTAHMQVKSLTSEDSAIYYCARRMITMGDWYFDV VL: EIVLTQSPSSLSASLGDRVTISCRASQDISNYLNWYQRKPDGTVKLLIYYTSRLQSGVPSRFSGSGSGSEYSLTISNLDQEDIATYFCQQGDALPWT . Does its Kd lie strictly below 0.4 nM?
1

Reference source: patent US20110250203A1
